tested on: A498 renal; test: NCI-60 one-dose screen, 48 h; conditions: 10 µM unless noted
This is part of a sample that, as a whole, favours compounds with a hit. Of some 83,000 tested, about 20% had one in any assay. The source made the active and inactive calls. How the source made its calls: active means growth percent below 10; inactive means the rest.
Allowed answers: Y = active, N = inactive

The examples below pair each entry with its known result.
[[record]]
compound = "NCCc1cc(O)c(O)cc1O"
cat = "N"

[[record]]
compound = "Oc1ccccc1OB(Oc1ccccc1O)N(CCCl)CCCl"
cat = "N"

[[record]]
compound = "CCC(C)[C@H]1O[C@]2(C=C[C@@H]1C)C[C@@H]1C[C@@H](C/C=C(\\C)[C@@H](OC3C[C@H](OC)C(O[C@H]4C[C@H](OC)[C@@H](O)[C@H](C)O4)[C@H](C)O3)[C@@H](C)/C=C/C=C3\\CO[C@@H]4[C@H](O)C(C)=C[C@@H](C(=O)O1)[C@]34O)O2 (stereo not given in full)"
cat = "Y"


Query string: Hi, do you know how "COc1ccc(/C=C\c2cc(OC)c(OC)c(OC)c2)cc1N/C=C\C(=O)c1c[nH]c2ccccc12" came out in this test?
Result string: Y

Query string: Lab log entry: "COc1cc(/C=C\c2cc(OC)c(OC)c(OC)c2)cc(N/C=C\C(=O)c2ccc(OC(F)(F)F)cc2)c1OC" — outcome as called in the assay?
Result string: Y

Query string: Recorded test call requested for COc1ccc(C(=O)c2ccc([As]=O)cc2)cc1 (stereo not given)
Result string: Y

Query string: Could you please tell me the result logged for C=CC(=O)NC(O)C(Cl)(Cl)Cl (stereo not given) in this assay?
Result string: N

Query string: Each compound tested received a call. Report the one for ClCCN(CCCl)c1nc(Cl)c(C2CC(c3ccccc3)=NN2c2ccccc2)s1 (stereo not given) .
Result string: N

Query string: Give the logged outcome of this assay for the following compound: "C1CN1c1nc(N2CC2)nc(N2CC2)n1"
Result string: N

Query string: Please state the recorded outcome for this compound: CCC(CC)(c1ccccc1)C(OC(N)=O)c1ccccc1 (stereo not given)
Result string: N

----------
tested on: HL-60(TB) leukemia; assay: NCI-60 one-dose screen, 48 h (100 = growth as untreated, 0 = no growth, -100 = all killed); details: 10 µM unless noted
This is part of a sample that, as a whole, favours compounds with a hit. Of some 83,000 tested, about 20% had one in any assay. Activity calls are given as the source filed them. The calls were made as follows: active = growth percent below 10; inactive = the rest.
Each entry below carries its reported growth.

Query string: Kindly state the measured growth obtained for "O=C1c2nsnc2C(=O)c2c(F)c(F)c(F)c(F)c21" with HL-60(TB) leukemia.
Result string: -41.9% (active)

Query string: Please state recorded growth (tested on HL-60(TB) leukemia) of "O=C(N/N=C/c1ccc([N+](=O)[O-])o1)c1ccc(O)cc1"
Result string: 19.8% (inactive)

Query string: // fetch HL-60(TB) leukemia growth for "O=C(CCSc1nnc2n(Cc3ccccc3)c(=O)c3c4c(sc3n12)CCCC4)N1CCN(c2ccccc2)CC1"
Result string: 106% (inactive)

Query string: Give recorded growth with HL-60(TB) leukemia for the following compound: "Cc1c(Cl)cccc1NC(=O)CN1CCOCC1"
Result string: 81.7% (inactive)

Query string: Notebook entry, HL-60(TB) leukemia assay: growth of "COc1cccc(-c2nn(-c3ccccc3)cc2-c2ccnc(NCCCNS(=O)(=O)c3ccccc3)c2)c1" = ?
Result string: 16% (inactive)

Query string: GET /values?readout=growth&system=HL-60(TB) leukemia&item= CCN(CC)CCCC(C)Nc1ccnc2c(OC)cccc12 (configuration not stated)
Result string: 52.6% (inactive)

Query string: Tell me reported growth for "COc1ccc(Cl)c(Nc2nc3ccccc3nc2NS(=O)(=O)c2cccc(NC(=O)C(C)(C)N)c2)c1" , tested with HL-60(TB) leukemia.
Result string: 32.6% (inactive)

Query string: Request body: readout growth, system HL-60(TB) leukemia, query "Cc1ccc(NS(=O)(=O)c2ccc(-c3cnc(C4CC4)o3)cc2)cc1C" . Return the value.
Result string: -1.17% (active)

Query string: Which growth is reported with HL-60(TB) leukemia for this entry: "COC(=O)CCCCCn1c2ccccc2c2c3c(c4c5ccccc5[nH]c4c21)C(=O)N(O)C3=O" ?
Result string: 19.1% (inactive)

Query string: Record "N#Cc1c(-c2ccccc2)cc(-c2ccccc2)n(CCCCC(=O)O)c1=O" : what is its growth with HL-60(TB) leukemia?
Result string: 102% (inactive)

Query string: Form field - read-out: growth; system: HL-60(TB) leukemia; submitted item: "COc1cc(Cc2cc(-c3ccccc3)n[nH]c2=O)cc(OC)c1OC"
Result string: 53.4% (inactive)

Query string: Please provide the recorded growth for COc1ccc(C2CC(c3ccc(-c4ccccc4)cc3)=NN2c2ccc(S(N)(=O)=O)cc2)cc1 (configuration not stated) , tested on HL-60(TB) leukemia.
Result string: 69.4% (inactive)

Query string: Which growth is reported with HL-60(TB) leukemia for this entry: "CC#Cc1nc(Nc2cc(C)[nH]n2)c2ccccc2n1" ?
Result string: 4.13% [100 µM] (active)

Query string: Param readout= growth; system= HL-60(TB) leukemia; entry= "O=C(/C=C/c1ccccc1)c1ccccc1O" ; returns value.
Result string: 24.1% (inactive)

Query string: API: value(readout=growth, system=HL-60(TB) leukemia) for record ClC1=NC(Cl)C(Cl)=N/C1=N\c1ncn[nH]1 (configuration not stated)
Result string: -64.6% (active)

Query string: Please tell me: growth of "O=C(/C=C/c1ccc(O)c(O)c1)N1CCN(c2ccc(Cl)cc2)CC1" , system HL-60(TB) leukemia?
Result string: 12.9% (inactive)

----------
growth values by entry
system: A549/ATCC NSCLC; experiment: NCI-60 one-dose screen, 48 h (100 = growth as untreated, 0 = no growth, -100 = all killed); conditions: 10 µM unless noted
This is part of a sample that, as a whole, favours compounds with a hit. Of some 83,000 tested, about 20% had one in any assay.
Quick reminder: number only, in %, skip the unit.

Worked examples, 2 molecules total:
[[record]]
molecule = "CC12CCC(=O)C=C1C(O)CC1C2CCC2(C)C(O)CCC12 (stereo not given)"
val = 101

[[record]]
molecule = "Cn1cnnc1[S-].[Au+].c1ccc([PH+](c2ccccc2)c2ccccc2)cc1"
val = 78.8


Query string: Quick one: growth of "N#CC(C#N)=Cc1ccc2ccccc2c1" ?
Result string: 107

Query string: What value of growth has been reported for the following molecule? "C/C1=C/C(=O)O[C@@H]2C[C@@H](CC[C@H](C)/C=C\C=C\CC1)O[C@@](OCCc1ccccc1)([C@@H]1CSC(=O)N1)C2"
Result string: 15.4

Query string: Would you kindly share the measured growth for "CC[C@@H](C)/C=C(C)/C=C/C(=O)c1c(O)c(-c2ccc(O)cc2)cn(O)c1=O" ?
Result string: 3.85

----------
The following molecules are shown together with reported growth values.
system: DU-145 prostate; assay: NCI-60 one-dose screen, 48 h (100 = growth as untreated, 0 = no growth, -100 = all killed); conditions: 10 µM unless noted
Compounds without any hit were thinned out: in the full panel of roughly 83,000, 20% have a hit.
Numbers only; they are read as %.

Previously resolved entries follow.
[[record]]
molecule = "FC(F)=C(F)c1ccccc1"
val = 108

[[record]]
molecule = "COc1ccc(NP2(=O)OCC(C)(N)CO2)cc1 (stereo not drawn)"
val = 102

[[record]]
molecule = "N#[N+]c1cnc([O-])[nH]c1=O"
val = 99.9

[[record]]
molecule = "O=C1NC(=S)NC(=O)C1=Cc1ccccc1"
val = 122

[[record]]
molecule = "O=C(O)c1[nH]c(=O)[nH]c(=O)c1F"
val = 96.6


Query string: What measured growth is associated with "C1CN1c1nc(N2CC2)nc(N2CC2)n1" on DU-145 prostate?
Result string: -1.22

Query string: Notebook: pull reported growth for DU-145 prostate, entry CC1(CF)NC(=O)NC1=O (stereo not drawn)
Result string: 116

Query string: Lab request: please report growth under test system DU-145 prostate for "CC1(C)N=C(N)N=C(N)N1c1ccc(CCCCc2ccc(S(=O)(=O)F)cc2)cc1"
Result string: 31.8

Query string: What measured growth is associated with "Nc1c(Br)cc([N+](=O)[O-])cc1[N+](=O)[O-]" on DU-145 prostate?
Result string: 101

Query string: Lab note: need growth for "NC(=O)C(Cl)Cl" on DU-145 prostate, anyone have it?
Result string: 108

Query string: # query: growth | item "C[CH2][Pb]([CH2]C)([CH2]C)[O]C(=O)c1ccc(N)cc1" | system: DU-145 prostate
Result string: 68

Query string: Give DU-145 prostate growth for "C/C(=N/OC(=O)N(C)C)c1cc(Cl)ccc1Cl"
Result string: 105
